# Tested on: hMR1 protein (Homo sapiens)
# Construct: plasmids encoding for the extracellular domains of MR1, β2m, and the AF-7 TCRα and TCRβ chains
# Sequence (Q95460 23-302 limits assumed): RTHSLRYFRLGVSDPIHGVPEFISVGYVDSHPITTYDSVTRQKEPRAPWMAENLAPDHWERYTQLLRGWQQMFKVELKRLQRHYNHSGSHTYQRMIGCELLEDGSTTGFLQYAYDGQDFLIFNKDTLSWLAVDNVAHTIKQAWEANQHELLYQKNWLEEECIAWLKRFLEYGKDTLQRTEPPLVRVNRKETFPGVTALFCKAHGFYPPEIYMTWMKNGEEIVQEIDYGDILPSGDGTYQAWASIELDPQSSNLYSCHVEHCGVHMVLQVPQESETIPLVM
# Sequence (P61769 21-119 partner): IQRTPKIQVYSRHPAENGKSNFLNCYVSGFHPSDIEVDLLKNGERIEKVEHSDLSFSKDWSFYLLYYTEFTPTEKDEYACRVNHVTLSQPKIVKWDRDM
# Experimental details: fluorescence polarization–based cell-free assay, competition with JYM20 for MR1 binding
# Test parameters: 50% inhibition of 10 nM JYM20 binding to 100 nM empty hMR1, 37°C; three independent experiments in triplicate
pIC50: −log10 of the molar value.
Measured pIC50 values are reported for all entries that follow.

Molecule: Cc1cc2nc3c(=O)[nH]c(=O)nc-3n(CC=O)c2cc1C
Tested on: hMR1 protein (Homo sapiens)
pIC50: 4.27

Molecule: Cc1cc2nc3c(=O)[nH]c(=O)nc-3n(C[C@H](O)[C@H](O)[C@H](O)CO)c2cc1C
Tested on: hMR1 protein (Homo sapiens)
pIC50: 3.74

Molecule: Cc1cc2nc3c(=O)[nH]c(=O)nc-3n(C)c2cc1C
Tested on: hMR1 protein (Homo sapiens)
pIC50: 4.64

Molecule: Cc1cc2nc3[nH]c(=O)[nH]c(=O)c3nc2cc1C
Tested on: hMR1 protein (Homo sapiens)
pIC50: 4.90

Molecule: O=c1nc2[nH]c3ccccc3nc-2c(=O)[nH]1
Tested on: hMR1 protein (Homo sapiens)
pIC50: 4.87
